Test: in vivo
Conditions: male, CD-1, mouse, iv, 1 mg/kg
Measured metric: Cmax (ng/mL)
The reply should contain only the number, in ng/mL.

| Chem smiles | Data value |
| --- | --- |
| CC[C@@]1(O)C(=O)OCc2c1cc1n(c2=O)Cc2c-1c(=O)c1cc(F)ccc1n2[C@@H]1CCN(CC2CC2)C1 | 497 |

Next item in the queue.
Record request: Cmax value, item `CC[C@@]1(O)C(=O)OCc2c1cc1n(c2=O)Cc2c-1c(=O)c1cc(F)ccc1n2[C@@H]1CCN(C2CCCC2)C1`
635

----------
AUC(0-t) listing for selected molecules.
Experiment: in vivo
Conditions: male, CD-1, mouse, po, 10 mg/kg
The reply should contain only the number, in ng·h/mL.

| Chem smiles | Value unit | AUC(0-t) |
| --- | --- | --- |
| CC[C@@]1(O)C(=O)OCc2c1cc1n(c2=O)Cc2c-1c(=O)c1cc(F)ccc1n2[C@@H]1CCN(CC2CC2)C1 | ng·h/mL | 2400 |

Next item in the queue.
Record request: AUC(0-t) value, item `CC[C@@]1(O)C(=O)OCc2c1cc1n(c2=O)Cc2c-1c(=O)c1cc(F)ccc1n2[C@@H]1CCN(C2CCCC2)C1`
1370

----------
Assay: Pharmacokinetic study in mice, plasma concentrations by LC-MS/MS
Conditions: mouse, in vivo, po, 10 mg/kg
Description: Test Example 3. Pharmacokinetic Study for Determining Compound Concentrations in Mice by LC-MS/MS Principle: LC-MS/MS is used to quantify the plasma concentrations of the test article at successive time points, generating an in-vivo pharmacokinetic profile. Procedure: The test compound was dissolved in DMSO to prepare a 10 mg/mL stock solution. […] Plasma drug concentrations were determined by LC-MS/MS. […]
Measured metric: Cmax (ng/mL)
The reply should contain only the number, in ng/mL.

| Chem smiles | Cmax / ng/mL |
| --- | --- |
| CC[C@@]1(O)C(=O)OCc2c1cc1n(c2=O)Cc2c-1c(=O)c1cc(F)ccc1n2CCN(C)C1CC1 | 131 |

Next item in the queue.
Record request: Cmax value, item `CC[C@@]1(O)C(=O)OCc2c1cc1n(c2=O)Cc2c-1nc1cc(F)c(C)c3c1c2[C@@H](NC(=O)CO)CC3`
6.99

----------
Molecular target: topoisomerase I (Topo I) (Homo sapiens)
Sequence (P11387 whole entry): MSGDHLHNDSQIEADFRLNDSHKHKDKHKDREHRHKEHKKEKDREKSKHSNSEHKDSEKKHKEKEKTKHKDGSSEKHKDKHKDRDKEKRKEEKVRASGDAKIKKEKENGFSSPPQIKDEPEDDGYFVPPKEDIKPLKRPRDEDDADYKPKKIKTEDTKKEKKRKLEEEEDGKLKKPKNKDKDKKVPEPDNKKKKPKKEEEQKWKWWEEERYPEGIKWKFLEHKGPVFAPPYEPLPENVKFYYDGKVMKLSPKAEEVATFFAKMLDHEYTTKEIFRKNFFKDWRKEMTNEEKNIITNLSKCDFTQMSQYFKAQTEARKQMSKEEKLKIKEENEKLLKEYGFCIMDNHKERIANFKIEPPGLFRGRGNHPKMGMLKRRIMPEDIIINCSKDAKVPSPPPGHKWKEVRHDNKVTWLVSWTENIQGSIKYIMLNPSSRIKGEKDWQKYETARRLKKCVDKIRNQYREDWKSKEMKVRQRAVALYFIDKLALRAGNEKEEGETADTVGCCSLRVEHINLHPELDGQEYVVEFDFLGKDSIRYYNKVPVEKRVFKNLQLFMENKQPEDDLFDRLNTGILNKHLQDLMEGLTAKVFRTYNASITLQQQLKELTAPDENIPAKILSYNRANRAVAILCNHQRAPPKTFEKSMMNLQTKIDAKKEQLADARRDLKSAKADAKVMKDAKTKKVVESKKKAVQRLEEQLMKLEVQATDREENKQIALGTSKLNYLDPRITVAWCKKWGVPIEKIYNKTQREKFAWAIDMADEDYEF
Experiment: Topo I enzyme-inhibitory activity by agarose-gel electrophoresis (plasmid relaxation)
Format: biochemical
Details: 0.75 U Topo I, pNO1 plasmid, 37 °C, 30 min; compounds listed by group (Group A / Group B); read-out: inhibition of topoisomerase I (Topo I) enzymatic activity, IC50
pIC50: −log10 of the molar value.
pIC50 listing for selected compounds.

| Compound | pIC50 |
| --- | --- |
| CC[C@@]1(O)C(=O)OCc2c1cc1n(c2=S)Cc2c-1c(=O)c1cc(F)cc(C)c1n2C | > 6.70 |

Record request: pIC50 value, item `CC[C@@]1(O)C(=O)OCc2c1cc1n(c2=O)Cc2c-1c(=O)c1cc(F)c(C)cc1n2CCNC1CC(F)(F)C1`
6.30 to 6.70

Record request: pIC50 value, item CC[C@@]1(O)C(=O)OCc2c1cc1n(c2=O)Cc2c-1c(=O)c1cc(F)c([C@H](C)O)cc1n2C1CCCC1 (single isomer, unassigned)
6.30 to 6.70

Record request: pIC50 value, item `CC[C@@]1(O)C(=O)OCc2c1cc1n(c2=O)Cc2c-1c(=O)c1cc(F)c(F)cc1n2C`
> 6.70
